pIC50: −log10 of the molar value.
Test system aldose reductase enzyme (Rattus norvegicus), pIC50 listed for each of the molecules.
measure: pIC50

molecule="COc1ccc(NC(=O)C2CC3(NC(=O)NC3=O)c3cc(F)ccc3O2)cc1 (stereo not drawn)" measure=pIC50 result_value=7.15
molecule="NC(=O)C1CC2(NC(=O)NC2=O)c2cc(F)ccc2O1 (stereo not drawn)" measure=pIC50 result_value=6.40
molecule="O=C1NC(=O)C2(CC(CCl)Oc3ccc(F)cc32)N1 (stereo not drawn)" measure=pIC50 result_value=6.00

###

- system: aldose reductase enzyme (Rattus norvegicus)
- Construct: Using water-soluble extracts of rat lenses; from tissue; host or cells: rat lens, water-soluble extract
- assay-comment: inhibition of aldose reductase enzyme activity using water-soluble extracts of rat lenses (Kador and Sharpless procedure)
- Type: biochemical
- assay-setup: 10^-6 M, read-out: Percent Inhibition (%) of aldose reductase enzyme activity
measure: inhibition at 1 µM (%)

compound="O=C1NC(=O)C2(CC(CCl)Oc3ccc(F)cc32)N1 (stereo not shown)" system="aldose reductase enzyme (Rattus norvegicus)" measure="inhibition at 1 µM" result_value=51
compound="CN(C)C(=O)C1CC2(NC(=O)NC2=O)c2cc(F)ccc2O1 (stereo not shown)" system="aldose reductase enzyme (Rattus norvegicus)" measure="inhibition at 1 µM" result_value=29
compound="NC(=O)C1CC2(NC(=O)NC2=O)c2cc(F)ccc2O1 (stereo not shown)" system="aldose reductase enzyme (Rattus norvegicus)" measure="inhibition at 1 µM" result_value=85
compound="O=C1NC(=O)C2(CC(C(=O)O)Oc3ccc(F)cc32)N1 (stereo not shown)" system="aldose reductase enzyme (Rattus norvegicus)" measure="inhibition at 1 µM" result_value=47
compound="COc1ccc(NC(=O)C2CC3(NC(=O)NC3=O)c3cc(F)ccc3O2)cc1 (stereo not shown)" system="aldose reductase enzyme (Rattus norvegicus)" measure="inhibition at 1 µM" result_value=81
compound="CNC(=O)C1CC2(NC(=O)NC2=O)c2cc(F)ccc2O1 (stereo not shown)" system="aldose reductase enzyme (Rattus norvegicus)" measure="inhibition at 1 µM" result_value=78
compound="O=C1NC(=O)C2(CC(CO)Oc3ccc(F)cc32)N1 (stereo not shown)" system="aldose reductase enzyme (Rattus norvegicus)" measure="inhibition at 1 µM" result_value=28

###

- system: aldose reductase enzyme (Rattus norvegicus)
- Construct: Using water-soluble extracts of rat lenses; from tissue; host or cells: rat lens, water-soluble extract
- assay-comment: inhibition of aldose reductase enzyme activity using water-soluble extracts of rat lenses (Kador and Sharpless procedure)
- Format: biochemical
- assay-setup: 10^-7 M, read-out: Percent Inhibition (%) of aldose reductase enzyme activity
inhibition at 0.1 µM overview
measure: inhibition at 0.1 µM (%)

molecule="NC(=O)C1CC2(NC(=O)NC2=O)c2cc(F)ccc2O1 (stereo not shown)" system="aldose reductase enzyme (Rattus norvegicus)" result_value=15
molecule="O=C1NC(=O)C2(CC(CO)Oc3ccc(F)cc32)N1 (stereo not shown)" system="aldose reductase enzyme (Rattus norvegicus)" result_value=13
molecule="COc1ccc(NC(=O)C2CC3(NC(=O)NC3=O)c3cc(F)ccc3O2)cc1 (stereo not shown)" system="aldose reductase enzyme (Rattus norvegicus)" result_value=65
molecule="O=C1NC(=O)C2(CC(CCl)Oc3ccc(F)cc32)N1 (stereo not shown)" system="aldose reductase enzyme (Rattus norvegicus)" result_value=3
molecule="CNC(=O)C1CC2(NC(=O)NC2=O)c2cc(F)ccc2O1 (stereo not shown)" system="aldose reductase enzyme (Rattus norvegicus)" result_value=26
molecule="CN(C)C(=O)C1CC2(NC(=O)NC2=O)c2cc(F)ccc2O1 (stereo not shown)" system="aldose reductase enzyme (Rattus norvegicus)" result_value=10
molecule="O=C1NC(=O)C2(CC(C(=O)O)Oc3ccc(F)cc32)N1 (stereo not shown)" system="aldose reductase enzyme (Rattus norvegicus)" result_value=9

###

- system: aldose reductase enzyme (Rattus norvegicus)
- Construct: Using water-soluble extracts of rat lenses; from tissue; host or cells: rat lens, water-soluble extract
- assay-comment: inhibition of aldose reductase enzyme activity using water-soluble extracts of rat lenses (Kador and Sharpless procedure)
- Format: biochemical
- assay-setup: 10^-5 M, read-out: Percent Inhibition (%) of aldose reductase enzyme activity
measure: inhibition at 10 µM (%)

molecule="CN(C)C(=O)C1CC2(NC(=O)NC2=O)c2cc(F)ccc2O1 (stereo not shown) [Example 5]" result_value=61
molecule="NC(=O)C1CC2(NC(=O)NC2=O)c2cc(F)ccc2O1 (stereo not shown) [Example 2]" result_value=93
molecule="COc1ccc(NC(=O)C2CC3(NC(=O)NC3=O)c3cc(F)ccc3O2)cc1 (stereo not shown) [Example 8]" result_value=81
molecule="O=C1NC(=O)C2(CC(CO)Oc3ccc(F)cc32)N1 (stereo not shown) [Example 12]" result_value=85
molecule="O=C1NC(=O)C2(CC(CCl)Oc3ccc(F)cc32)N1 (stereo not shown) [Example 13]" result_value=90
molecule="O=C1NC(=O)C2(CC(C(=O)O)Oc3ccc(F)cc32)N1 (stereo not shown) [Example 1]" result_value=77
molecule="CNC(=O)C1CC2(NC(=O)NC2=O)c2cc(F)ccc2O1 (stereo not shown) [Example 3]" result_value=71

###

- System: polyol increase in sciatic nerve of galactosemic rats
- assay-comment: reduction or inhibition of polyol (galactitol) increase in sciatic nerve of galactosemic rats
- Type: in vivo, rat
- assay-setup: rats, 30% galactose diet, oral 10 mg/kg once a day for 8 days; sciatic nerve removed on 9th day
measure: Percent Inhibition (%) as compared to galactitol increase of the control animals

molecule="O=C1NC(=O)C2(CC(C(=O)O)Oc3ccc(F)cc32)N1 (stereo not shown)" result_value=36
molecule="CNC(=O)C1CC2(NC(=O)NC2=O)c2cc(F)ccc2O1 (stereo not shown)" result_value=31
molecule="O=C1NC(=O)C2(CC(CO)Oc3ccc(F)cc32)N1 (stereo not shown)" result_value=40
molecule="COc1ccc(NC(=O)C2CC3(NC(=O)NC3=O)c3cc(F)ccc3O2)cc1 (stereo not shown)" result_value=26
molecule="O=C1NC(=O)C2(CC(CCl)Oc3ccc(F)cc32)N1 (stereo not shown)" result_value=88
molecule="NC(=O)C1CC2(NC(=O)NC2=O)c2cc(F)ccc2O1 (stereo not shown)" result_value=85
molecule="CN(C)C(=O)C1CC2(NC(=O)NC2=O)c2cc(F)ccc2O1 (stereo not shown)" result_value=70
